Test system: Melanoma cancer cell lines
test-summary: NCI anticancer screen, SRB assay, panel summary
Format: cell-based, human
condition-context: Melanoma panel; log of concentration leading to 50% net cell death
Description: Some of biological activity studies were carried out at the National Cancer Institute (NCI), Maryland, USA. The compounds were evaluated for anticancer activity against fifty three human cancer cells derived from nine cancer types (leukemia cell line, non-small-cell lung cell line, colon cell line, CNS cell line, melanoma cell line, ovarian cell line, prostate cell line, and breast cancer cell line) as shown in Table 1. […]
assay-metric: mean graph midpoint (MG_MID) of Log10 LC50

compound | number
COc1cc(/C=C/C(=O)c2cccc(-n3cc(-c4cc(OC)c(OC)c(OC)c4)[nH]c3=O)c2)cc(OC)c1OC [5d] | 4.67
O=C(/C=C/c1cccc(O)c1)c1cccc(-n2cc(-c3ccccc3)[nH]c2=O)c1 [4a] | 4.35
COc1cc(/C=C/C(=O)c2cccc(-n3cc(-c4ccc(Cl)cc4)[nH]c3=O)c2)ccc1O [3f] | 4.32
O=C(/C=C/c1cccc(O)c1)c1cccc(-n2cc(-c3ccc(Cl)cc3)[nH]c2=O)c1 [4f] | 4.55
O=C(/C=C/c1cccc(O)c1)c1cccc(-n2cc(-c3ccc4ccccc4c3)[nH]c2=O)c1 [12b] | 4.62
COc1cc(/C=C/C(=O)c2cccc(-n3cc(-c4ccccc4)[nH]c3=O)c2)cc(OC)c1OC [5a] | 5.02
COc1cc(/C=C/C(=O)c2cccc(-n3cc(-c4ccccc4)[nH]c3=O)c2)ccc1O [3a] | 4.06
COc1ccc(-c2cn(-c3cccc(C(=O)/C=C/c4ccc(O)c(OC)c4)c3)c(=O)[nH]2)cc1 [3b] | 4.13
COc1cc(/C=C/C(=O)c2cccc(-n3cc(-c4ccc(Cl)cc4)[nH]c3=O)c2)cc(OC)c1OC [5f] | 4.24
COc1ccc(-c2cn(-c3cccc(C(=O)/C=C/c4cc(OC)c(OC)c(OC)c4)c3)c(=O)[nH]2)cc1 [5b] | 4.58

###

GI50 reference
Test system: UACC-62 (melanoma)
test-summary: NCI anticancer screen, SRB assay, 48 h
Type: cell-based, human
condition-context: Homo sapiens, 48 h exposure, SRB, read-out: GI50

compound | units-label | GI50
COc1ccc(-c2cn(-c3cccc(C(=O)/C=C/c4ccc(O)c(OC)c4)c3)c(=O)[nH]2)cc1 [3b] | nM | 3960
COc1cc(/C=C/C(=O)c2cccc(-n3cc(-c4ccc(Cl)cc4)[nH]c3=O)c2)ccc1O [3f] | nM | 2740
O=C(/C=C/c1cccc(O)c1)c1cccc(-n2cc(-c3ccccc3)[nH]c2=O)c1 [4a] | nM | 3650
O=C(/C=C/c1cccc(O)c1)c1cccc(-n2cc(-c3ccc(Cl)cc3)[nH]c2=O)c1 [4f] | nM | 1850
COc1cc(/C=C/C(=O)c2cccc(-n3cc(-c4ccccc4)[nH]c3=O)c2)ccc1O [3a] | nM | 2010
COc1cc(/C=C/C(=O)c2cccc(-n3cc(-c4ccccc4)[nH]c3=O)c2)cc(OC)c1OC [5a] | nM | 1520
O=C(/C=C/c1cccc(O)c1)c1cccc(-n2cc(-c3ccc4ccccc4c3)[nH]c2=O)c1 [12b] | nM | 1800
COc1cc(/C=C/C(=O)c2cccc(-n3cc(-c4cc(OC)c(OC)c(OC)c4)[nH]c3=O)c2)cc(OC)c1OC [5d] | nM | 1870

###

Test system: SK-MEL-2 (melanoma)
test-summary: NCI anticancer screen, SRB assay, 48 h
Format: cell-based, human
condition-context: Homo sapiens, read-out: pGI50 (-log of molar concentration causing 50% inhibition of net cell growth) (converted)

compound | tested-target | GI50 (µM)
COc1cc(/C=C/C(=O)c2cccc(-n3cc(-c4ccccc4)[nH]c3=O)c2)cc(OC)c1OC [5a] | SK-MEL-2 (melanoma) | 2.04
COc1cc(/C=C/C(=O)c2cccc(-n3cc(-c4ccccc4)[nH]c3=O)c2)ccc1O [3a] | SK-MEL-2 (melanoma) | 3.63
O=C(/C=C/c1cccc(O)c1)c1cccc(-n2cc(-c3ccccc3)[nH]c2=O)c1 [4a] | SK-MEL-2 (melanoma) | 8.32
O=C(/C=C/c1cccc(O)c1)c1cccc(-n2cc(-c3ccc(Cl)cc3)[nH]c2=O)c1 [4f] | SK-MEL-2 (melanoma) | 2.09
COc1cc(/C=C/C(=O)c2cccc(-n3cc(-c4cc(OC)c(OC)c(OC)c4)[nH]c3=O)c2)cc(OC)c1OC [5d] | SK-MEL-2 (melanoma) | 3.02
COc1ccc(-c2cn(-c3cccc(C(=O)/C=C/c4ccc(O)c(OC)c4)c3)c(=O)[nH]2)cc1 [3b] | SK-MEL-2 (melanoma) | 5.5
COc1cc(/C=C/C(=O)c2cccc(-n3cc(-c4ccc(Cl)cc4)[nH]c3=O)c2)ccc1O [3f] | SK-MEL-2 (melanoma) | 3.63
O=C(/C=C/c1cccc(O)c1)c1cccc(-n2cc(-c3ccc4ccccc4c3)[nH]c2=O)c1 [12b] | SK-MEL-2 (melanoma) | 2.29

###

GI50 reference
Test system: BT-549 (breast)
test-summary: NCI anticancer screen, SRB assay, 48 h
Format: cell-based, human
condition-context: Homo sapiens, 48 h exposure, SRB, read-out: GI50

compound | tested-target | units-label | GI50
COc1ccc(-c2cn(-c3cccc(C(=O)/C=C/c4ccc(O)c(OC)c4)c3)c(=O)[nH]2)cc1 [3b] | BT-549 (breast) | nM | 4570
O=C(/C=C/c1cccc(O)c1)c1cccc(-n2cc(-c3ccc4ccccc4c3)[nH]c2=O)c1 [12b] | BT-549 (breast) | nM | 1890
COc1cc(/C=C/C(=O)c2cccc(-n3cc(-c4cc(OC)c(OC)c(OC)c4)[nH]c3=O)c2)cc(OC)c1OC [5d] | BT-549 (breast) | nM | 1520
COc1cc(/C=C/C(=O)c2cccc(-n3cc(-c4ccccc4)[nH]c3=O)c2)ccc1O [3a] | BT-549 (breast) | nM | 2780
COc1cc(/C=C/C(=O)c2cccc(-n3cc(-c4ccc(Cl)cc4)[nH]c3=O)c2)ccc1O [3f] | BT-549 (breast) | nM | 2520
O=C(/C=C/c1cccc(O)c1)c1cccc(-n2cc(-c3ccccc3)[nH]c2=O)c1 [4a] | BT-549 (breast) | nM | 9320
COc1cc(/C=C/C(=O)c2cccc(-n3cc(-c4ccccc4)[nH]c3=O)c2)cc(OC)c1OC [5a] | BT-549 (breast) | nM | 1930
O=C(/C=C/c1cccc(O)c1)c1cccc(-n2cc(-c3ccc(Cl)cc3)[nH]c2=O)c1 [4f] | BT-549 (breast) | nM | 1450

###

GI50 reference
Tested on: SN12C (renal)
test-summary: NCI anticancer screen, SRB assay, 48 h
Type: cell-based, human
condition-context: Homo sapiens, SN12C; SN 12C; read-out: pGI50 (-log of molar concentration causing 50% inhibition of net cell growth) (converted)
assay-metric: GI50 (µM)

compound | tested-target | assay-metric | number
O=C(/C=C/c1cccc(O)c1)c1cccc(-n2cc(-c3ccc4ccccc4c3)[nH]c2=O)c1 [12b] | SN12C (renal) | GI50 | 1.45
O=C(/C=C/c1cccc(O)c1)c1cccc(-n2cc(-c3ccc(Cl)cc3)[nH]c2=O)c1 [4f] | SN12C (renal) | GI50 | 1.95
COc1ccc(-c2cn(-c3cccc(C(=O)/C=C/c4ccc(O)c(OC)c4)c3)c(=O)[nH]2)cc1 [3b] | SN12C (renal) | GI50 | 4.07
O=C(/C=C/c1cccc(O)c1)c1cccc(-n2cc(-c3ccccc3)[nH]c2=O)c1 [4a] | SN12C (renal) | GI50 | 3.16

###

Test system: HCC-2998 (colon)
test-summary: NCI anticancer screen, SRB assay, 48 h
Type: cell-based, human
condition-context: Homo sapiens, 48 h exposure, SRB, read-out: GI50

chemical-string | GI50
COc1cc(/C=C/C(=O)c2cccc(-n3cc(-c4cc(OC)c(OC)c(OC)c4)[nH]c3=O)c2)cc(OC)c1OC | 1920 nM
COc1cc(/C=C/C(=O)c2cccc(-n3cc(-c4ccccc4)[nH]c3=O)c2)cc(OC)c1OC | 1260 nM
O=C(/C=C/c1cccc(O)c1)c1cccc(-n2cc(-c3ccccc3)[nH]c2=O)c1 | 4090 nM
COc1cc(/C=C/C(=O)c2cccc(-n3cc(-c4ccc(Cl)cc4)[nH]c3=O)c2)ccc1O | 1850 nM

###

System: HOP-92 (non-small cell lung)
test-summary: NCI anticancer screen, SRB assay, 48 h
Type: cell-based, human
condition-context: Homo sapiens, read-out: pGI50 (-log of molar concentration causing 50% inhibition of net cell growth) (converted)

molecule | units-label | GI50
O=C(/C=C/c1cccc(O)c1)c1cccc(-n2cc(-c3ccc(Cl)cc3)[nH]c2=O)c1 | nM | 1580
COc1ccc(-c2cn(-c3cccc(C(=O)/C=C/c4ccc(O)c(OC)c4)c3)c(=O)[nH]2)cc1 | nM | 2950
O=C(/C=C/c1cccc(O)c1)c1cccc(-n2cc(-c3ccc4ccccc4c3)[nH]c2=O)c1 [12b] | nM | 513
COc1cc(/C=C/C(=O)c2cccc(-n3cc(-c4ccccc4)[nH]c3=O)c2)ccc1O | nM | 2290
COc1cc(/C=C/C(=O)c2cccc(-n3cc(-c4ccccc4)[nH]c3=O)c2)cc(OC)c1OC | nM | 10700
COc1cc(/C=C/C(=O)c2cccc(-n3cc(-c4ccc(Cl)cc4)[nH]c3=O)c2)ccc1O | nM | 1260
O=C(/C=C/c1cccc(O)c1)c1cccc(-n2cc(-c3ccccc3)[nH]c2=O)c1 | nM | 5010
